Items are presented alongside their recorded protein stability index.
System: Saccharomyces cerevisiae
Experiment: protein stability index of tFT-peptide fusion (C-terminal peptide) (PSI (0-1 scale)); higher = more stable (slower turnover);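 further: PSI is a weighted mean of sequencing reads over stability bins, variants kept only with over 10 reads, mCherry proximal and sfGFP distal, peptide attached via GGGS linker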
Conditions: genetic background: wild type; temperature: 30 C

Worked examples follow.
INSERT INTO assay_data (sequence_data, reported_value) VALUES
  ('LATIPTFPPLPP', 0.634),
  ('MGYYDGIRYKEV', 0.735),
  ('IYFRILKKRSKT', 0.639),
  ('SRGGVFYVRIHS', 0.455),
  ('GVGSGEASDGCT', 0.626),
  ('HPLPTPSPHLSP', 0.728);

What protein stability index appears in the records for this sequence with Saccharomyces cerevisiae? RACLVWKSLGWV
0.605

Same question, KLSIKNLFDLLY this time
0.691

Same question, SSGIGLFVWVYG this time
0.421

Same question, KFKGIKEINNGN this time
0.633

###

Items are presented alongside their recorded protein stability index.
Test system: Saccharomyces cerevisiae
Experiment: protein stability index of tFT-peptide fusion (C-terminal peptide) (PSI (0-1 scale)); higher = more stable (slower turnover)
Conditions: genetic background: wild type; temperature: 30 C
// response body must contain only the number

Worked examples follow.
INSERT INTO results (sequence_data, recorded_metric, reported_value) VALUES
  ('VALEFLGWVGLS', 'protein stability index', 0.684),
  ('GVGYRLGACPDR', 'protein stability index', 0.695),
  ('GLLVAGGRNGDC', 'protein stability index', 0.719),
  ('LEGGACFGVCEW', 'protein stability index', 0.696),
  ('PLPYSPPLHVYP', 'protein stability index', 0.691);

Record request: protein stability index value, item LPPHPPREAPPN
0.682

Same question, SRPPRSPPLPPV this time
0.686

Same question, GRVSFFDYSRER this time
0.704

###

Tested on: Saccharomyces cerevisiae
Assay: protein stability index of tFT-peptide fusion (C-terminal peptide) (PSI (0-1 scale)); higher = more stable (slower turnover)
Conditions: genetic background: das1 deletion; temperature: 37 C
RECORDED_METRIC: protein stability index
// response body must contain only the number

INSERT INTO measurements (sequence_data, reported_value) VALUES
  ('SFTRYIFFLMFF', 0.585),
  ('VFGCHHLEVSVC', 0.377),
  ('FPLPPPGSPPPL', 0.735),
  ('RLVRILSTILLN', 0.703),
  ('AKVFGLILVLLT', 0.407);

Record request: protein stability index value, item PGSIGVVIAVRS
0.574

Same question, RGPSQVIVAFFV this time
0.688

Same question, TVILVLFPSPFL this time
0.671

Same question, YWRNYLVLVCKF this time
0.778

###

Items are presented alongside their recorded protein stability index.
Tested on: Saccharomyces cerevisiae
Assay: protein stability index of tFT-peptide fusion (C-terminal peptide) (PSI (0-1 scale)); higher = more stable (slower turnover)
Details: genetic background: wild type; temperature: 30 C
// response body must contain only the number

Worked examples follow.
INSERT INTO results (sequence_data, reported_value) VALUES
  ('RYVFAFRRNYFC', 0.223),
  ('GGGVGGGRAWWR', 0.699);

Kindly review the next sequence as well.
What protein stability index appears in the records for this sequence with Saccharomyces cerevisiae? KKKKGKKRRTRK
0.72
